So I've got a bunch of molecules here, and I need their pIC50 values.
target: Enterobacter cloacae P99 β-lactamase (Enterobacter cloacae); assay: Inhibition of P99 β-lactamase, nitrocefin assay (IC50); conditions: nitrocefin substrate, 20 mM MOPS pH 7.50
Sequence (P05364 21-381): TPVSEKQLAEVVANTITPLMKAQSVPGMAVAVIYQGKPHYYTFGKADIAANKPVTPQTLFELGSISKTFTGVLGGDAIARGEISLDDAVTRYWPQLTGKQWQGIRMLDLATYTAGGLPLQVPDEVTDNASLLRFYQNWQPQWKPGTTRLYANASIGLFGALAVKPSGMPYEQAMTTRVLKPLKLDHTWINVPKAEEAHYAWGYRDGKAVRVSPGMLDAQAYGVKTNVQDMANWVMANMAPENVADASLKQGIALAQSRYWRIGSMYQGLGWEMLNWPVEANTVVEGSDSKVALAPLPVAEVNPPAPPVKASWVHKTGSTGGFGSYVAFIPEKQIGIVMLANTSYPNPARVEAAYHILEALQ
Give bare numbers, as −log10 of the molar value.

Reference set, count: 2
>  <smiles input>
O=C(OP(=O)(O)Oc1ccc([N+](=O)[O-])cc1)c1ccccc1

>  <pIC50>
4.41

$$$$
>  <smiles input>
O=C(Cc1ccccc1)OP(=O)(O)Oc1ccccc1

>  <pIC50>
4.52

$$$$

Provide only the value of recorded pIC50 for O=C(OP(=O)(O)Oc1cccc2ccccc12)c1ccccc1
5.10
